Biological target: human VPAC1 (Homo sapiens, UniProt P32241)
Construct: expressed in transfected cells
Sequence (P32241 31-457): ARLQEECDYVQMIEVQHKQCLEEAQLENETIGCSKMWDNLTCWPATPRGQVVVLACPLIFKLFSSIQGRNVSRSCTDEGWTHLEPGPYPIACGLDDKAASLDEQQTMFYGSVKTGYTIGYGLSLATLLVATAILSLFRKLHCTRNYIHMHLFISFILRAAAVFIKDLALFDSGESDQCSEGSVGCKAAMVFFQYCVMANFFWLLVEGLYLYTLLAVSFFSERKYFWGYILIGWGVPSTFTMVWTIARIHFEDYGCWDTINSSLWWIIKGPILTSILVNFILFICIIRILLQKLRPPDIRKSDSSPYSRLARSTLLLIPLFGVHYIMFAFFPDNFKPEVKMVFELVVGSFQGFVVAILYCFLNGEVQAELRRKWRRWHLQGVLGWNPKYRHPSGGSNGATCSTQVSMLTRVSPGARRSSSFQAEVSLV
Assay: Filter binding assay, membranes from cells transiently transfected with human VPAC1, 125I-labeled VIP tracer
Conditions: read-out: Human receptor binding (IC50; nM) VPAC1
Square brackets hold non-standard residues; d marks the D form. Ends that are not written are not given here. * marks the point of attachment. Hexanoyl = CCCCCC(=O)*; Aib = CC(C)(N)C(=O)O
Assignment: determine reported IC50 for the given substances.

Suppose we examine the substance C6-HSDAVFTDNYThRLRAibQVAAAibKYLQSIhRNhRhRYGGPSSGAPPPC(PEG40K)-NH2 (HSDAVFTDNYTXLRXQVAAXKYLQSIXNXXYGGPSSGAPPPC; non-natural residues) [Agonist P340] ; what IC50 value has been reported?
> 3000 nM

Suppose we examine the substance C6-HSDAVFTDNYTRLRAibQVAAKAibYLQSIKNKRYGGPSSGAPPPC(PEG40K)-NH2 (Hexanoyl-HSDAVFTDNYTRLR[Aib]QVAAK[Aib]YLQSIKNKRYGGPSSGAPPPC(PEG 40 kDa)-NH2) [Agonist P286] ; what IC50 value has been reported?
> 3000 nM

Suppose we examine the substance P137: PEGylated material obtained from P120 and methoxy-PEG2-MAL-40K (HSDAVFTDNYTRLRKQVAAKKYLQSIKNKRYGGPSSGAPPPC; also: PEGylated with methoxy-PEG2-MAL-40K, site not given here) [Agonist P137] ; what IC50 value has been reported?
853 nM

Suppose we examine the substance C6-HSDAVFTEQY(OMe)TOrnLRAibQVAK(CO(CH2)2SPEG40K)AibOrnYLQSIOrnOrnGGPSSGAPPPS-NH2 (HSDAVFTEQYTXLRXQVAXXXYLQSIXXGGPSSGAPPPS; non-natural residues) [Agonist P432] ; what IC50 value has been reported?
> 3000 nM

Suppose we examine the substance C6-HSDAVFTDNYTOrnLRAibQVAAAibKYLQC(PEG40K)IOrnNOrnGGPSSGAPPPS (HSDAVFTDNYTXLRXQVAAXKYLQCIXNXGGPSSGAPPPS; non-natural residues) [Agonist P373] ; what IC50 value has been reported?
> 25000 nM

Suppose we examine the substance P246 (Hexanoyl-HSDAVFTDNYTRLRRQVAAK(PEG 40 kDa)RYLQSIRNGGPSSGAPPPS) [Agonist P246] ; what IC50 value has been reported?
> 25000 nM

Suppose we examine the substance P219 (Hexanoyl-HSDAVFTDNYTRLRRQVAAK(PEG 20 kDa)RYLQSIRNGGPSSGAPPPS) [Agonist P219] ; what IC50 value has been reported?
> 25000 nM

====

test: Pharmacokinetic profiles of PEGylated peptides, plasma peptide by RIA; type: in vivo, Fisher 344 rats; conditions: Fisher 344 rats, 100 μg compound/kg, plasma RIA, mean N = 3
Assignment: determine reported Tmax for the given substances.
Note: unit h is implicit; provide only the numeric part.

Suppose we examine the substance C6-HSDAVFTEQY(OMe)TOrnLRAibQVAK(CO(CH2)2SPEG40K)AibOrnYLQSIOrnOrnGGPSSGAPPPS-NH2 (HSDAVFTEQYTXLRXQVAXXXYLQSIXXGGPSSGAPPPS; non-natural residues) [Agonist P432] ; what Tmax value has been reported?
16

Suppose we examine the substance C6-HSDAVFTDNYThRLRAibQVAAAibKYLQSIhRNhRhRYGGPSSGAPPPC(PEG40K)-NH2 (HSDAVFTDNYTXLRXQVAAXKYLQSIXNXXYGGPSSGAPPPC; non-natural residues) [Agonist P340] ; what Tmax value has been reported?
6

Suppose we examine the substance C6-HDAVFTEQY(OMe)TOrnLRAibQVAAAibOrnYLQSIOrnOrnGGPSSGAPPPC(PEG60K)-NH2 [Agonist P404] ; what Tmax value has been reported?
20

Suppose we examine the substance C6-HSDAVFTDNYTOrnLRAibQVAAAibKYLQC(PEG40K)IOrnNOrnGGPSSGAPPPS (HSDAVFTDNYTXLRXQVAAXKYLQCIXNXGGPSSGAPPPS; non-natural residues) [Agonist P373] ; what Tmax value has been reported?
13

====

Assignment: determine reported EC50 for the given substances.
Biological target: rat VPAC2 receptor (Rattus norvegicus)
Construct: expressed in transfected cells; host or cells: CHO-PO cells, transient
Sequence (P35000 23-437): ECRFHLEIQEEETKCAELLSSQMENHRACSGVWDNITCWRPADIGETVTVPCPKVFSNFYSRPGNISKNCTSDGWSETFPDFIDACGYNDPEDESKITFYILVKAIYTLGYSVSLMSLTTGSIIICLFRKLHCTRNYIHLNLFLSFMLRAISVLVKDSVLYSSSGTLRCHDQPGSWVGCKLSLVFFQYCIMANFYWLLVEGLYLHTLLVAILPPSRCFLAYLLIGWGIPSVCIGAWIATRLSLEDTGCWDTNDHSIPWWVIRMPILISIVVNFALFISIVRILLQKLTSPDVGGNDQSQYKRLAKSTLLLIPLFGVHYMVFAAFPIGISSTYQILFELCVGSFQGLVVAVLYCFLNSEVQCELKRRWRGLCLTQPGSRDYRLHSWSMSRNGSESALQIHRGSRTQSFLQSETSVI
Assay: Rat VPAC2 in vitro potency (cAMP generation, DiscoveRx) in transiently transfected CHO-PO cells
Assay type: cell-based
Conditions: CHO-PO cells transiently transfected with rat VPAC2; read-out: rVPAC2 in vitro potency (cAMP generation) EC50
Square brackets hold non-standard residues; d marks the D form. Ends that are not written are not given here. * marks the point of attachment. Hexanoyl = CCCCCC(=O)*; Aib = CC(C)(N)C(=O)O
Note: unit nM is implicit; provide only the numeric part.

Provide the documented EC50 with rat VPAC2 receptor (Rattus norvegicus) as the system for C6-HSDAVFTDNYThRLRAibQVAAAibKYLQSIhRNhRhRYGGPSSGAPPPC(PEG40K)-NH2 (HSDAVFTDNYTXLRXQVAAXKYLQSIXNXXYGGPSSGAPPPC; non-natural residues) [Agonist P340]
4

Provide the documented EC50 with rat VPAC2 receptor (Rattus norvegicus) as the system for C6-HSDAVFTEQY(OMe)TOrnLRAibQVAK(CO(CH2)2SPEG40K)AibOrnYLQSIOrnOrnGGPSSGAPPPS-NH2 (HSDAVFTEQYTXLRXQVAXXXYLQSIXXGGPSSGAPPPS; non-natural residues) [Agonist P432]
16.7

Provide the documented EC50 with rat VPAC2 receptor (Rattus norvegicus) as the system for C6-HSDAVFTDNYTOrnLRAibQVAAAibKYLQC(PEG40K)IOrnNOrnGGPSSGAPPPS (HSDAVFTDNYTXLRXQVAAXKYLQCIXNXGGPSSGAPPPS; non-natural residues) [Agonist P373]
72.2

Provide the documented EC50 with rat VPAC2 receptor (Rattus norvegicus) as the system for C6-HDAVFTEQY(OMe)TOrnLRAibQVAAAibOrnYLQSIOrnOrnGGPSSGAPPPC(PEG60K)-NH2 [Agonist P404]
24.4

Provide the documented EC50 with rat VPAC2 receptor (Rattus norvegicus) as the system for P137: PEGylated material obtained from P120 and methoxy-PEG2-MAL-40K (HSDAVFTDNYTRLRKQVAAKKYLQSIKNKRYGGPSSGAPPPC; also: PEGylated with methoxy-PEG2-MAL-40K, site not given here) [Agonist P137]
8

Provide the documented EC50 with rat VPAC2 receptor (Rattus norvegicus) as the system for P300 (Hexanoyl-HSDAVFTDNYTRLR[Aib]QVAA[Aib]KYLQSIKNKRYGGPSSGAPPPC(PEG 40 kDa)-NH2) [Agonist P300]
5.8
